Origin of the recorded values: patent EP4417607A1

- measurement description: Pharmacokinetics in mice after single intragastric or intravenous administration
- Format: in vivo
- condition notes: female, BALB/c nude, mouse, plasma, po, single intragastric administration, 50 mg/kg
- Experimental: Healthy adult female BALB/c nude mice were evenly divided into groups of 3 mice per group. 3 mice were administered intragastrically, and 3 mice were administered intravenously. The mice were purchased from Beijing Vital River Laboratory Animal Technology Co., Ltd., animal production license number: SCXK (Zhejiang) 2019-0001. […]
observation type: Cmax (ng/mL)
One number for each entry, in ng/mL.

[ask] Return the recorded Cmax value; entry: COc1c(=O)n(C2(CF)CC2)cc2c(N[C@H](C)c3cccc(C(F)F)c3F)nc(C)nc12 [Example 1]
[reply] 9430
